For each of the binders below, state its Kd.
- Tested On: T1, dimeric hIL-4R-hFc (human, UniProt P24394 26-232)
- T1 construct: also called hIL-4R-Fc; not shown: human Fc (hFc)
- T1 sequence: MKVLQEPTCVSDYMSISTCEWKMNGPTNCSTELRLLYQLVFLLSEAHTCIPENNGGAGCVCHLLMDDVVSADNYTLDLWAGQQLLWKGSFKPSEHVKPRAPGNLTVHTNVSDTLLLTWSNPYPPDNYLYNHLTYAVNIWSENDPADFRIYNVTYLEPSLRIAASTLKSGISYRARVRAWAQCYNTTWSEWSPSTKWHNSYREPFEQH
- Assay Protocol: SPR (BIAcore 2000); antibody captured, dimeric hIL-4R-hFc injected
# output: numeric value plus its unit

Query: Provide Kd value for the following binder: VAB 16F3-1 (antibody, V domains shown, Apparently tested with mouse constant region (anti-mouse IgG capture/detection)) VH: QVQLVQSGAEVKKPGASVKVSCKASGYTFNSYGISWVRQAPGQGLEWMGWIRTYNGNTNYAQKLQGRVTMTTDTSTSTAYMELRSLRSDDTAVYYCARDEARIVVAGTTPYYYGMDVWGQGTTVTVSS VL: DIQMTQSPSSVSASVGDRVTITCRASQDISIWLAWYQQSPGKAPKLLINVASRLQSGVPSRFSGSGSGTDFTLTINSLQPEDFVTYYCQQANSFPITFGQGTRLATK
Result: 3 pM

Query: Provide Kd value for the following binder: VAK10G12-5 (antibody, V domains shown, Apparently tested with mouse constant region (anti-mouse IgG capture/detection)) VH: QVQLVESGGGVVQPGGSLRLSCAASGFTFSSYGMHWVRQAPGRGLEWVAVLSYDGSKEFYADSVKVRFTVSRDNSKNTLYLQMSSLRVEDTAIYFCAKEGRTGNWFDPWGQGTLVAVSS VL: DIQMTQSPSSLSASVGDRVTITCRASQAINNFLAWFQQKPGKTPKSLIFATSSLQSGVPSRFSGSESGTDFTLTISSLQPEDFATYYCQQYNSHPWTFGQGTKVEIK
Result: 7 pM

Query: Provide Kd value for the following binder: VAB 1H1-2 (antibody, V domains shown, Apparently tested with mouse constant region (anti-mouse IgG capture/detection)) VH: QVQLVQSGAEVKKPGASVKVSCKASGYTFTSYGISWVRQAPGQGLEWMGWISVYNGNTNYAQKLQGRVTMTTDTSTSTAYMDLRSLRSDDAAVYYCARGSGYDFDYWGQGTLVTVSS VL: AIQMTQSPSSLSASVGDRVTITCRASQGIRNALGWYQQKPGKAPKLLIYAASSLQSGVPSRFSGSGSGTDFTLTISSLQSEDFATYYCLQDYNYPYTFGQGTKLEIK
Result: 139 pM

Sourced from patent US20080160035A1
